- ASSAY PROCEDURE: Solubility of THC in ethanol:water with or without permeation enhancer (HPLC)
- TEST CONDITIONS: ethanol:water 70:30 v/v, aqueous with cosolvent or surfactant or cyclodextrin, thermodynamic from solid
ASSAY METRIC: solubility at 24 h (mg/mL)
Numbers only, in mg/mL.

Prompt: For the molecule shown here, CCCCCc1cc(O)c2c(c1)OC(C)(C)[C@@H]1CCC(C)=C[C@@H]21 [THC, tetrahydrocannabinol] , give the reported solubility at 24 h.
Response: 20.2
